system: Tov-21-G; experiment: Confirmatory qHTS for gynecologic anti-cancer compounds from libraries of approved drugs and bioactive compounds; conditions: gynecologic cancer cell panel viability, ATPlite luminescence, 48 h; series mostly up to 57.7 µM; further: nearly all actives have a fitted effect of over 55% in size
Inconclusive results are not listed. The source made the active and inactive calls. The call rests on the fitted dose curve; in most records, active means well fitted cell-killing curve with a large enough effect; inconclusive means small, poorly fitted or top-dose-only effect, or effect the other way; inactive means no such curve, though single readings can be large or run the other way.
Your response should consist of one outcome taken from active, inactive

## Task // outcome(item) with item = `CCN1CCN(C(=O)Cc2ccc(Nc3ncc(F)c(Nc4ccc(C(=O)Nc5ccccc5Cl)cc4)n3)cc2)CC1`
## Result inactive

## Task // outcome(item) with item = CCOc1ccccc1-n1c(C(C)N2CCN(C(=O)COc3ccc(Cl)cc3)CC2)nc2ccccc2c1=O (centres undefined)
## Result active

## Task // outcome(item) with item = `C/C=C(/C)C(=O)O[C@H]1C(C)=C2[C@H]([C@@H]1OC(=O)CCCCCCC)[C@@](C)(OC(C)=O)C[C@H](OC(=O)CCC)[C@@]1(O)[C@H]2OC(=O)[C@@]1(C)O`
## Result active

## Task // outcome(item) with item = `O=C(O)Cc1ccccc1`
## Result inactive
